Assignment: determine reported Ki for the given compounds.
target: UniProt:P10608
Sequence (P10608 whole entry, looked up): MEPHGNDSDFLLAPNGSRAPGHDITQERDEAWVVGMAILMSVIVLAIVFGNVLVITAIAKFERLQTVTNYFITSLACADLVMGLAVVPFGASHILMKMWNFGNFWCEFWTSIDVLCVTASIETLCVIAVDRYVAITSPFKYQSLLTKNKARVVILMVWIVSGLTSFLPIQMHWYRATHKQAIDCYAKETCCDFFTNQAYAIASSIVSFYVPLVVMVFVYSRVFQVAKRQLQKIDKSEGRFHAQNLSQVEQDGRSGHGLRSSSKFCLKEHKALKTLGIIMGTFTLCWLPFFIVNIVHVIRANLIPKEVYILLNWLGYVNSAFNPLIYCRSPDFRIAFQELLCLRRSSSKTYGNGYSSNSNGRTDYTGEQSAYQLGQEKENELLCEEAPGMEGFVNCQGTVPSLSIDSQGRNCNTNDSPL
Numbers only, in µM.

compound=CNC[C@H](O)c1cc(O)c(O)cc1F value_unit=µM test_result=38

Checklist item: Ki tested on UniProt:P10608, entry CNCC(O)c1cc(O)c(O)cc1F (configuration not stated) , value?
50
